Target under test: human GPCR sphingosine 1-phosphate receptor 5 (Homo sapiens)
Construct: host or cells: CHO
Sequence (Q9H228 whole entry): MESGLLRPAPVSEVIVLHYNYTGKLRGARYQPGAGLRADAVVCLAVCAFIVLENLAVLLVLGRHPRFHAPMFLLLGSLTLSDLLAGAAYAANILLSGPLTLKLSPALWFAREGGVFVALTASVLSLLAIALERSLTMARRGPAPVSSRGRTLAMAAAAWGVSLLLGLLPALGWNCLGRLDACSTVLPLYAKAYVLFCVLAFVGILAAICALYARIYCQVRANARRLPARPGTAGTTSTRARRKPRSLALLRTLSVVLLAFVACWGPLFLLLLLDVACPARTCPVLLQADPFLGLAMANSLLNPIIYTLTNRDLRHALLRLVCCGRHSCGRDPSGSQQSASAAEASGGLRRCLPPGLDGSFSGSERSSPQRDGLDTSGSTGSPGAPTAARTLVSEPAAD
Measurement notes: S1PR5 selectivity Ca2+ flux assay (antagonist readout)
Format: cell-based
Recorded conditions: CHO cells overexpressing human S1PR5 and Gq, agonist at EC80 (20 nM), read-out: S1P5 EC50 (nM), S1P5 antagonist EC50
Readout kind: EC50 (nM)

Here is how some compounds turned out for EC50.
Look up EC50 for this compound: O=C(Cc1nn(Cc2nc3cc(OCC(F)F)c(Cl)cc3[nH]2)c2ccccc2c1=O)N1CCOCC1 [Compound 159]
19800

Given the entry O=C(O)Cc1nn(Cc2cn3cc(OCC4CC4)c(Cl)cc3n2)c2ccccc2c1=O [Compound 89] , report its measured EC50.
6610

Look at this compound and give its reported EC50. O=C(O)c1cn(Cc2nc3cc(OCC4CC4)c(Cl)cc3[nH]2)c2ccccc2c1=O [Compound 90]
6610

[I] CC(F)(F)COc1cc2nc(Cc3nn(CC(=O)N4CCOCC4)c(=O)c4ccccc34)[nH]c2cc1C#N [Compound 52]
[II] O=C(O)Cn1nc(Cc2cn3cc(OCC4CC4)c(Cl)cc3n2)c2ccccc2c1=O [Compound 82]
From the recorded data, which exceeds the other in EC50: I or II ? Let me know the label of the one you choose.
I

----------
Target under test: S1PR2 (Homo sapiens, UniProt O95136)
Construct: expressed in transfected cells
Sequence (O95136 whole entry): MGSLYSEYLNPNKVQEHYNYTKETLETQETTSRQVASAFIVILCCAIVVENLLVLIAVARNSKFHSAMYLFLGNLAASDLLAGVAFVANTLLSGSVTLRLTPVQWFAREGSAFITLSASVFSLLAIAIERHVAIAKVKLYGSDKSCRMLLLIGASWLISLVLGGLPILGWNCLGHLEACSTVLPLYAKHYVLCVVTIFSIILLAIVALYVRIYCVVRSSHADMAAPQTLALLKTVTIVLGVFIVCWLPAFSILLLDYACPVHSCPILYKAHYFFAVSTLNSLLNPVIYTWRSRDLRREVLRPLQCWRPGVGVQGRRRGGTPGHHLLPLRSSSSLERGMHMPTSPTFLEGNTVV
Measurement notes: S1PR2 binding assay (competition with radioactively labeled S1P, SpA)
Recorded conditions: membranes from stable cell line over expressing S1PR2, SpA beads; read-out: S1P2 EC50 (nM), S1PR2 binding EC50
Readout kind: EC50 (nM)

Some solved entries appear below for comparison.
# EC50 lookup, item CC(C#N)CN(C)C(=O)Cn1nc(Cc2nc3cc(C#N)c(OCC(F)F)cc3[nH]2)c2ccccc2c1=O (stereo not drawn)
197

Find the recorded EC50 belonging to `O=c1c2ccccc2c(Cn2cc3cc(OCC4CC4)c(Cl)cc3n2)nn1C1CNC1` and report it.
75.7

I would be grateful if you could share the reported EC50 for `O=C(Cn1nc(Cc2nc3cc(OCC(F)F)c(F)cc3[nH]2)c2ccccc2c1=O)N1CCOCC1` .
647

Form field: reported EC50 of `O=C(Cn1nc(Cc2nc3cc(Cl)c(OCC(F)F)cc3[nH]2)c2ccc(N3CCOCC3)cc2c1=O)N1CCOCC1`
378

Sample O=C(O)CN1CCC(n2nc(Cc3cn4cc(OCC5CC5)c(Cl)cc4n3)c3ccccc3c2=O)C1 (stereo not drawn) — what was its EC50?
178

[1] O=c1c2ccccc2c(Cc2nc3cc(Cl)c(OC(F)(F)F)cc3[nH]2)nn1CC1CCCO1 (stereo not drawn)
[2] CC1(C)CN(C(=O)Cn2nc(Cc3nc4cc(OCC(F)F)c(C#N)cc4[nH]3)c3ccccc3c2=O)CCO1
// compare measured EC50 between 1 and 2 ; output the lower one Identify your selection by its label.
2
(2: 82.1 nM, 1: 5190 nM)

[1] N#Cc1cc2nc(Cc3nn(CC(=O)N4CCC(F)(F)CC4)c(=O)c4c3CCCC4)[nH]c2cc1OCC(F)F
[2] N#Cc1cc2[nH]c(Cc3nn(CC(=O)O)c(=O)c4ccccc34)nc2cc1OCC1CC1
# returns the entry with the larger EC50; inputs 1 and 2 Refer to your chosen item by its label in the answer.
1

[1] O=c1c2ccccc2c(Cc2nc3cc(Cl)c(OC(F)(F)F)cc3[nH]2)nn1CC1CCC1
[2] N#Cc1cc2nc(Cc3nn(CC(=O)N4CCC(F)(F)CC4)c(=O)c4ccccc34)[nH]c2cc1OCC(F)F
Param metric = EC50; output whichever of 1 , 2 has the minimum value. When you have decided, please share the label of that item.
2

This collection of values is drawn from patent US20210315893A1.
